# Experiment: chemical genetic growth profiling, strain panel (AID 1159580);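 further: tested at 20 µM; growth read once vehicle control cultures reached saturation at 30 °C; 1 = growth at the plate median or of vehicle wells; lower values mean less growth of the strain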
# Condition: S. cerevisiae deletion strains, growth OD, locus YDR001C, strain nth1, hits give low values
Out of some 5,500 compounds screened, about 2,000 (36%) were called active. Roughly 18% stayed inconclusive and do not appear here. This is one part of the list.
normalized growth: recorded values

[
  {
    "Molecule": "C/C=C(\\C)C(=O)O[C@@H]1c2c(ccc3ccc(=O)oc23)OC(C)(C)[C@@H]1OC(C)=O",
    "normalized growth": 1.01
  },
  {
    "Molecule": "COC(=O)CC1C(C)(C)C(OC(C)=O)[C@@H]2[C@@H](OC(C)=O)[C@]34O[C@@]2(O)[C@]1(C)C3CC[C@]1(C)C4=CC(=O)O[C@H]1c1ccoc1 (stereo not given in full)",
    "normalized growth": 1.01
  },
  {
    "Molecule": "COC1=CC(=O)C=C(OC)C1=O",
    "normalized growth": 1
  },
  {
    "Molecule": "CC(=O)Oc1ccccc1C(=O)Oc1ccccc1C(=O)O",
    "normalized growth": 1.01
  },
  {
    "Molecule": "Oc1ccc([C@H]2Oc3cc(O)cc(O)c3C[C@H]2O)cc1",
    "normalized growth": 0.987
  },
  {
    "Molecule": "CCn1nc(C(=O)O)c(=O)c2cc3c(cc21)OCO3",
    "normalized growth": 0.996
  },
  {
    "Molecule": "O=c1c(O)cc([C@H]2Oc3cc(O)cc(O)c3C[C@H]2O)cc2c([C@H]3Oc4cc(O)cc(O)c4C[C@H]3O)cc(O)c(O)c12",
    "normalized growth": 1.03
  },
  {
    "Molecule": "NC[C@H]1O[C@H](OC2[C@@H](N)C[C@@H](N)[C@H](O[C@H]3O[C@H](CO)[C@@H](O)[C@H](N)[C@H]3O)[C@H]2O)[C@H](O)[C@@H](O)[C@@H]1O (stereo not given in full)",
    "normalized growth": 0.995
  },
  {
    "Molecule": "COc1cc(C(=O)N2CCOCC2)cc(OC)c1OC",
    "normalized growth": 0.98
  },
  {
    "Molecule": "CNC[C@H](O)c1cccc(O)c1",
    "normalized growth": 0.991
  }
]

====

normalized growth: recorded values
# Experiment: chemical genetic growth profiling, strain panel (AID 1159580);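 further: tested at 20 µM; growth read once vehicle control cultures reached saturation at 30 °C; 1 = growth at the plate median or of vehicle wells; lower values mean less growth of the strain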
# Condition: S. cerevisiae deletion strains, growth OD, locus YIL066C, strain RNR3, hits give low values
Out of some 5,500 compounds screened, about 2,000 (36%) were called active. Another 18% or so got no clear call; they are omitted. The list shows a part of the results.

[
  {
    "Molecule": "COC(=O)CC1C(C)(C)C(OC(C)=O)[C@@H]2[C@@H](OC(C)=O)[C@]34O[C@@]2(O)[C@]1(C)C3CC[C@]1(C)C4=CC(=O)O[C@H]1c1ccoc1 (some centres undefined)",
    "normalized growth": "0.979 (inactive)"
  },
  {
    "Molecule": "O=C(CCCN1CCC2(CC1)C(=O)NCN2c1ccccc1)c1ccc(F)cc1",
    "normalized growth": "0.972 (inactive)"
  },
  {
    "Molecule": "CCOC(=O)CC(SP(=S)(OC)OC)C(=O)OCC (centres undefined)",
    "normalized growth": "1.04 (inactive)"
  },
  {
    "Molecule": "CC1(C)O[C@@H]2CC3C4C[C@H](F)C5=CC(=O)CC[C@]5(C)C4[C@@H](O)C[C@]3(C)[C@]2(C(=O)CO)O1 (some centres undefined)",
    "normalized growth": "1 (inactive)"
  }
]
